Each entry below carries its reported TGI.
Tested on: RXF 393 renal
measurement-notes: NCI tumour cell line growth inhibition, 48 h

{"compound": "O=C(O)CCCc1ccc2ccccc2c1", "TGI": "> 100 µM"}
{"compound": "CC(C)(C)c1cc2c(O)c(c1)Cc1cc(C(C)(C)C)cc(c1O)Cc1cc(C(C)(C)C)cc(c1O)Cc1cc(C(C)(C)C)cc(c1O)Cc1cc(C(C)(C)C)cc(c1O)Cc1cc(C(C)(C)C)cc(c1O)Cc1cc(C(C)(C)C)cc(c1O)Cc1cc(C(C)(C)C)cc(c1O)C2", "TGI": "> 50 µM"}
{"compound": "COC(=O)C1(C(=O)OC)N=C(C)OC1/C=C/c1ccccc1 (configuration not stated)", "TGI": "> 100 µM"}
{"compound": "Cc1cc(C)nc(NS(=O)(=O)c2ccc(Nc3c4ccc(Cl)cc4nc4c(C(=O)NCCN(C)C)cccc34)cc2)n1", "TGI": "> 100 µM"}
{"compound": "CC#CC1C2CCCC1(CSc1ccccc1)NC(=O)O2 (configuration not stated)", "TGI": "> 100 µM"}
{"compound": "COc1ccc(C(=O)C(c2ccc(OCc3ccccc3)cc2)c2ccc(OCc3ccccc3)cc2)cc1", "TGI": "> 100 µM"}
{"compound": "COc1ccccc1/C=C1\\NC(=S)N(/C=C2\\C(=O)Oc3ccccc3C2=O)C1=O", "TGI": "> 100 µM"}
{"compound": "COC(=O)[C@H](CC(C)C)Nc1c(O)c2c(c(O)c1Cl)C(=O)C=CC2=O", "TGI": "> 10 µM"}
{"compound": "Cc1ccc2c(c1)S(=O)(=O)c1ccc3ccccc3c1N2", "TGI": "> 100 µM"}
{"compound": "O=C(O)CC(Sc1ccccc1)c1ccccc1 (configuration not stated)", "TGI": "> 100 µM"}
{"compound": "Cc1cc(N(CCCl)CCCl)ccc1C=Nc1ccc2ccccc2c1", "TGI": "> 96 µM"}
{"compound": "C=C(C(=C)P(=S)(c1ccccc1)c1ccccc1)P(=S)(c1ccccc1)c1ccccc1", "TGI": "> 100 µM"}

----------
Tested on: RPMI-8226 leukemia
measurement-notes: NCI tumour cell line growth inhibition, 48 h

{"molecule": "CN1CCN(Cc2ccc(NC(=O)c3cccc(C#Cc4cnc(N)c5ncccc45)c3F)cc2C(F)(F)F)CC1", "TGI": "13.2 µM"}
{"molecule": "CC(=O)OC12c3ccccc3-c3ccccc3C1C1C(=O)OC(=O)C12 (centres undefined)", "TGI": "> 10 µM"}
{"molecule": "CCOC(=O)C(C(=S)SC)c1nn2c(=O)cc(C)nc2s1 (centres undefined)", "TGI": "48.7 µM"}
{"molecule": "O=C(Nc1ccc(/C=C/c2ccc(NC(=O)c3cc(S(=O)(=O)O)c4cccnc4c3O)cc2S(=O)(=O)O)c(S(=O)(=O)O)c1)c1cc(S(=O)(=O)O)c2cccnc2c1O", "TGI": "> 65.2 µM"}

----------
System: SNB-19 CNS
measurement-notes: NCI tumour cell line growth inhibition, 48 h
Listing: TGI of selected compounds
measured-property: TGI (µM)

{"compound": "CC(=O)N1N=C2/C(=C/c3ccc(Cl)cc3)CC(C)CC2C1c1ccc(Cl)cc1 (stereo unspecified)", "experimental-target": "SNB-19 CNS", "bound-sign": ">", "reading": 100}
{"compound": "COC(=O)[C@H](Cc1ccc(OC(C)(C)C)cc1)N[C@H](C)C(=O)N[C@@H](Cc1ccccc1)C(=O)OCc1ccccc1", "experimental-target": "SNB-19 CNS", "bound-sign": ">", "reading": 100}
{"compound": "O=c1c2cc(Cl)cc(Cl)c2oc2nc3n(c(=O)c12)CCCS3", "experimental-target": "SNB-19 CNS", "bound-sign": ">", "reading": 100}
{"compound": "C=CCOC(=O)C1=C(CCC[C@@H](C)O[Si](C)(C)C(C)(C)C)N=C(N)N2[C@H](CCO)CC[C@@H]12", "experimental-target": "SNB-19 CNS", "bound-sign": "=", "reading": 29}
{"compound": "CCCCCCCCC(=O)OCC(CS[As](C)C)OC(=O)CCCCCCCC (stereo unspecified)", "experimental-target": "SNB-19 CNS", "bound-sign": "=", "reading": 42.9}
{"compound": "CN1CCN(Cc2ccc(NC(=O)c3cccc(C#Cc4cnc(N)c5ncccc45)c3F)cc2C(F)(F)F)CC1", "experimental-target": "SNB-19 CNS", "bound-sign": "=", "reading": 3.72}
{"compound": "COc1ccc(C2C3CCc4ccccc4C3=NN2S(=O)(=O)c2ccc(/C=C/C(=O)O)cc2)cc1 (stereo unspecified)", "experimental-target": "SNB-19 CNS", "bound-sign": ">", "reading": 100}
{"compound": "CSc1ncc2c(n1)sc1c(=O)n(-c3ccccc3)cnc12", "experimental-target": "SNB-19 CNS", "bound-sign": ">", "reading": 100}
{"compound": "CC(=O)OC1CC2C3CCC4C[C@@H](NC(=O)C=C(C)C)CC[C@]4(C)C3CC[C@]2(C)[C@H]1C(C)N(C)C (stereo partly specified)", "experimental-target": "SNB-19 CNS", "bound-sign": "=", "reading": 9.06}
{"compound": "CC1OC(OC2C(OC3CCC4(C)C(CCC5(C)C4CC=C4C6CC(C)(C)CCC6(C(=O)O)CCC45C)C3(C)CO)OCC(O)C2O)C(O)C(O)C1O (stereo unspecified)", "experimental-target": "SNB-19 CNS", "bound-sign": "=", "reading": 32.3}
{"compound": "CC(C)(C)c1cc2c(O)c(c1)Cc1cc(C(C)(C)C)cc(c1O)Cc1cc(C(C)(C)C)cc(c1O)Cc1cc(C(C)(C)C)cc(c1O)Cc1cc(C(C)(C)C)cc(c1O)Cc1cc(C(C)(C)C)cc(c1O)Cc1cc(C(C)(C)C)cc(c1O)Cc1cc(C(C)(C)C)cc(c1O)C2", "experimental-target": "SNB-19 CNS", "bound-sign": ">", "reading": 50}
{"compound": "C=C(C(=C)P(=S)(c1ccccc1)c1ccccc1)P(=S)(c1ccccc1)c1ccccc1", "experimental-target": "SNB-19 CNS", "bound-sign": ">", "reading": 100}
{"compound": "CC(=O)OC1COC(N2C(=O)C(=O)c3cc(Br)ccc32)C(OC(C)=O)C1OC(C)=O (stereo unspecified)", "experimental-target": "SNB-19 CNS", "bound-sign": ">", "reading": 100}
{"compound": "CC(C)NC(=O)CCN(C(=O)O)S(=O)(=O)c1ccc(NC(=O)c2ccccc2)cc1", "experimental-target": "SNB-19 CNS", "bound-sign": ">", "reading": 100}
{"compound": "CCN(CC)CCNc1ccc2nnn3c4ccc(O)cc4c(=O)c1c23", "experimental-target": "SNB-19 CNS", "bound-sign": "=", "reading": 22.2}
{"compound": "C1CC[C@H]2SSC3CCCC[C@H]3SSC2C1 (stereo partly specified)", "experimental-target": "SNB-19 CNS", "bound-sign": ">", "reading": 100}
{"compound": "COc1cc(C(=O)Nc2cc(OC)c3ccn(C)c3c2)cc2c1C[C@]1(C)CC[C@@H](O)C(C)(C)[C@H]1O2", "experimental-target": "SNB-19 CNS", "bound-sign": "=", "reading": 90.2}
{"compound": "COc1ccc(/C=C2\\CCC/C(=C\\c3ccc(O)c(CN4CCCCC4)c3)C2=O)cc1", "experimental-target": "SNB-19 CNS", "bound-sign": "=", "reading": 70.2}
{"compound": "Cc1c(O)c2c(c(O)c1Br)C(=O)C=CC2=O", "experimental-target": "SNB-19 CNS", "bound-sign": "=", "reading": 3.74}
{"compound": "CN(c1cn(C2CC[C@@H](CO)O2)c(=O)[nH]c1=O)C1CCCCC1 (stereo partly specified)", "experimental-target": "SNB-19 CNS", "bound-sign": ">", "reading": 100}
{"compound": "C[C@@H](Oc1ccc(C(=O)NS(=O)(=O)C(C)(C)C)cc1C(F)(F)F)c1ccc(Oc2ccccc2)cn1", "experimental-target": "SNB-19 CNS", "bound-sign": "=", "reading": 14}
